Values from ChEMBL document CHEMBL4808214

Measured Activity, listed per entry for reference.
molecular target: Nuclear factor NF-kappa-B complex (Homo sapiens) (UniProt Q00653+P19838+Q04206); assay: Activation of NF-kappaB in human THP1-Blue NF-kappaB cells co-expressing NFkappaB-inducible SEAP assessed as increase in SEAP activity at 5 uM measured after 20 hrs by quanti-blue based colorimetric assay relative to control; assay type: cell-based; conditions: filed as activator
Sequence (P19838 whole entry, looked up): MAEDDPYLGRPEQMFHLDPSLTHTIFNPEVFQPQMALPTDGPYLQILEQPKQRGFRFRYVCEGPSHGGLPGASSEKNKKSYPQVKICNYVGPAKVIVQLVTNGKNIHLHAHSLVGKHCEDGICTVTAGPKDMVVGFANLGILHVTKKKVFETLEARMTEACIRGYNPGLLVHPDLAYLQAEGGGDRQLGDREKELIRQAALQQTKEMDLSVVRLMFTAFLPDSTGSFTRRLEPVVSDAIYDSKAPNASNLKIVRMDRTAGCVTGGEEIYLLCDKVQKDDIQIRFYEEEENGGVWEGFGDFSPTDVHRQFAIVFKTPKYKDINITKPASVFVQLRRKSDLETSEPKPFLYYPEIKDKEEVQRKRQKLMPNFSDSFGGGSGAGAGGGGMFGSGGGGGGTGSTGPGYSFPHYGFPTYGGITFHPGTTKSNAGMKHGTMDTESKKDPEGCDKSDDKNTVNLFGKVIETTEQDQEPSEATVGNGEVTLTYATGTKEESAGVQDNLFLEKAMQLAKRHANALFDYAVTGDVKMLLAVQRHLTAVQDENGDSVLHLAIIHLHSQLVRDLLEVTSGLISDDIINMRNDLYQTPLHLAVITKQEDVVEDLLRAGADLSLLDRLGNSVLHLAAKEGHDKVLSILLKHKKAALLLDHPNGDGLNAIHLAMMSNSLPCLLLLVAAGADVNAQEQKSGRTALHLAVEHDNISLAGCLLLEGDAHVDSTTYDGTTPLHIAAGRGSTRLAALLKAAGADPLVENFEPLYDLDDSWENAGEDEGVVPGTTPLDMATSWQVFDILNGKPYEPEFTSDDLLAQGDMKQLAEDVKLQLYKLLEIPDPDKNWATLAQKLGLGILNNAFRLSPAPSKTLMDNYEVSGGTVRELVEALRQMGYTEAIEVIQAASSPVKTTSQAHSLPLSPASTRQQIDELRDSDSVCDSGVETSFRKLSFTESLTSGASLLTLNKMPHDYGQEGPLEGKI
Sequence (Q00653 whole entry, looked up): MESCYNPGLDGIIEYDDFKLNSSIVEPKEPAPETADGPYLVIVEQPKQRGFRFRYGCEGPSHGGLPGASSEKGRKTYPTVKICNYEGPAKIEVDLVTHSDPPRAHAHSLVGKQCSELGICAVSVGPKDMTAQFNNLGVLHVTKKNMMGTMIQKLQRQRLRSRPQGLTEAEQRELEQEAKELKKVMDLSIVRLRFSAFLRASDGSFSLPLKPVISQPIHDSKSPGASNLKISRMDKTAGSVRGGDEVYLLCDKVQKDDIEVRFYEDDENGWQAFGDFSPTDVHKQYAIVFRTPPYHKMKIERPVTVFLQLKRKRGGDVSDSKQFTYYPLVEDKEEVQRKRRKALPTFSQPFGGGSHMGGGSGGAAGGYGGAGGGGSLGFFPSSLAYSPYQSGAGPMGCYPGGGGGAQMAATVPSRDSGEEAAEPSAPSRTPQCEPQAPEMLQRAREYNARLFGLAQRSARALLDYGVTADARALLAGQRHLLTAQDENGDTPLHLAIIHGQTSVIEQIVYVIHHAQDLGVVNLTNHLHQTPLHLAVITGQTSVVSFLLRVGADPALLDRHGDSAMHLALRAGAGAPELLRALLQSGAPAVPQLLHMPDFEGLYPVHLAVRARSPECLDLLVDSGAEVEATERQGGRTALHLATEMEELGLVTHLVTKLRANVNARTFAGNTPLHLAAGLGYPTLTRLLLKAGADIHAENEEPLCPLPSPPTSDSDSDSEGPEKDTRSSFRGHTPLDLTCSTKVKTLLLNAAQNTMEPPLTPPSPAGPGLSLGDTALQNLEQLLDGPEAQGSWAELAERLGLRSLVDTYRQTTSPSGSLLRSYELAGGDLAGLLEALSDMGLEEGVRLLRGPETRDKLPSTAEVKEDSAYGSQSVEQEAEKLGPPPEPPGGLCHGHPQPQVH
Sequence (Q04206 whole entry, looked up): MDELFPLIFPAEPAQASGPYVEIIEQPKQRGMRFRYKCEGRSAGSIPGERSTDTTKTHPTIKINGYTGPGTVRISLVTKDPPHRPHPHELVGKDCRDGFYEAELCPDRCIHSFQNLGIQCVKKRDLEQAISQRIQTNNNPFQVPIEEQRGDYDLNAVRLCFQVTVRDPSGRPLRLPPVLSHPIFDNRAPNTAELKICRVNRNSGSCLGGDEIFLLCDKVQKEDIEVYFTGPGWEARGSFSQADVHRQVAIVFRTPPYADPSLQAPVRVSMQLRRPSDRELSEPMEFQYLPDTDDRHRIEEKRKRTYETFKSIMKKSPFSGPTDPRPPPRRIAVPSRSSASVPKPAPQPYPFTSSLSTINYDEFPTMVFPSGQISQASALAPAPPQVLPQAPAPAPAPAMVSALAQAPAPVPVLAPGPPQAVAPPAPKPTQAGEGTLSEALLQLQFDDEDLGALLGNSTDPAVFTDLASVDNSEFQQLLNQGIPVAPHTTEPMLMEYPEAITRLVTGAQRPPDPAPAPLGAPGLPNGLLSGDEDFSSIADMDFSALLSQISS
Reply numerically in %, unit not repeated.

SMILES INPUT: CC(C)(C)c1csc(NC(=O)c2ccc(S(=O)(=O)N3CCCCC3)cc2)n1
TARGET SYSTEM: Nuclear factor NF-kappa-B complex (Homo sapiens) (UniProt Q00653+P19838+Q04206)
Activity / %: 99

SMILES INPUT: Cc1ccc(C)c(-c2nc(NC(=O)c3ccc(S(=O)(=O)N4CCCCC4)cc3)sc2N2CCCCC2)c1
TARGET SYSTEM: Nuclear factor NF-kappa-B complex (Homo sapiens) (UniProt Q00653+P19838+Q04206)
Activity / %: 99

SMILES INPUT: Cc1ccc(C)c(-c2csc(NCc3ccc(S(=O)(=O)N4CCCCC4)cc3)n2)c1
TARGET SYSTEM: Nuclear factor NF-kappa-B complex (Homo sapiens) (UniProt Q00653+P19838+Q04206)
Activity / %: 99

SMILES INPUT: CC(C)(C)Cc1csc(NC(=O)c2ccc(S(=O)(=O)N3CCCCC3)cc2)n1
TARGET SYSTEM: Nuclear factor NF-kappa-B complex (Homo sapiens) (UniProt Q00653+P19838+Q04206)
Activity / %: 101

Ask: Suppose we examine the compound CCCC#Cc1sc(NC(=O)c2ccc(S(=O)(=O)N3CCC(CCC)CC3)cc2)nc1-c1cc(C)ccc1Br ; what Activity value has been reported?
Result: 111
